Cited source for all entries: patent US20030082625A1

Assay: Non-specific binding (NSB) of drugs to ultrafiltration membrane filter, polyethersulfone (Millipore Ultrafree-MC UFC 3BSC00, 10 k NMWL)
Format: physicochemical
Settings: no pretreatment, drug concentration 10 uM
Protocol: Various experiments were performed using the following reagents, surfactants and reservoirs (also comprising ultrafiltration units): human serum, pH 7.4 phosphate buffered saline (PBS), drug solution (i.e. compound) in serum at a concentration of 1-50 μM, and drug solution in PBS at a concentration of 1-50 μM were used as reagents. […] The ultrafiltration tube was centrifuged for 18 min at 3000 g at room temperature. […] Non-specific binding was calculated as follows: […]
Could you please report measured NSB (%) PES for the items listed next?
One number for each entry, in %.

Below are worked cases with known answers.
{"Compound": "CC(C)NCC(O)COc1cccc2ccccc12 (stereo not shown)", "Metric": "NSB (%) PES", "Quantitative result": 69}
{"Compound": "CC[C@]1(O)C[C@@H]2CN(CCc3c([nH]c4ccccc34)[C@@](C(=O)OC)(c3cc4c(cc3OC)N(C)[C@H]3[C@@](O)(C(=O)OC)[C@H](OC(C)=O)[C@]5(CC)C=CCN6CC[C@]43[C@@H]65)C2)C1", "Metric": "NSB (%) PES", "Quantitative result": 95}
{"Compound": "COc1cc([C@@H]2c3cc4c(cc3[C@@H](O[C@@H]3O[C@@H]5CO[C@@H](C)O[C@H]5[C@H](O)[C@H]3O)[C@H]3COC(=O)[C@H]23)OCO4)cc(OC)c1O [Etoposide]", "Metric": "NSB (%) PES", "Quantitative result": 93}

Report NSB (%) PES for C[C@]12CCC(=O)C=C1CC[C@@H]1[C@@H]2[C@@H](O)C[C@@]2(C)[C@H]1CC[C@]2(O)C(=O)CO [Hydrocortisone] please.
71

====

Assay: Non-specific binding (NSB) of drugs to ultrafiltration membrane filter, regenerated cellulose (Millipore Ultrafree-MC UFC 3LGC00, 10 k NMWL)
Assay type: physicochemical
Settings: pretreatment with 0.5% benzalkonium chloride; drug concentration 5 uM; regenerated cellulose
Please use fulfilled for NSB (%) BAK under 20% and not fulfilled for everything else, ties included.

{"Compound": "Cc1cc(=O)n(-c2ccccc2)n1C [Antipyrine]", "Classification": "fulfilled"}

Quick check: does COc1cc([C@@H]2c3cc4c(cc3[C@@H](O[C@@H]3O[C@@H]5CO[C@@H](C)O[C@H]5[C@H](O)[C@H]3O)[C@H]3COC(=O)[C@H]23)OCO4)cc(OC)c1O [Etoposide] have NSB (%) BAK under 20%?
not fulfilled

Quick check: does C[C@]12CCC(=O)C=C1CC[C@@H]1[C@@H]2[C@@H](O)C[C@@]2(C)[C@H]1CC[C@]2(O)C(=O)CO [Hydrocortisone] have NSB (%) BAK under 20%?
not fulfilled

====

Assay: Non-specific binding (NSB) of drugs to ultrafiltration membrane filter, regenerated cellulose (Millipore Ultrafree-MC UFC 3LGC00, 10 k NMWL)
Assay type: physicochemical
Details: pretreatment 1% benzalkonium chloride; drug 10 uM; regenerated cellulose
Could you please report measured NSB (%) 1% BAK for the items listed next?
Give bare numbers, in %.

{"Compound": "COc1ccc(CCN(C)CCCC(C#N)(c2ccc(OC)c(OC)c2)C(C)C)cc1OC (stereo not shown)", "Quantitative result": 34}
{"Compound": "CC[C@]1(O)C[C@@H]2CN(CCc3c([nH]c4ccccc34)[C@@](C(=O)OC)(c3cc4c(cc3OC)N(C)[C@H]3[C@@](O)(C(=O)OC)[C@H](OC(C)=O)[C@]5(CC)C=CCN6CC[C@]43[C@@H]65)C2)C1", "Quantitative result": 79}
{"Compound": "CC(C)NCC(O)COc1cccc2ccccc12 (stereo not shown)", "Quantitative result": 15}

From here, focus on the item given below.
Report NSB (%) 1% BAK for C[C@]12CCC(=O)C=C1CC[C@@H]1[C@@H]2[C@@H](O)C[C@@]2(C)[C@H]1CC[C@]2(O)C(=O)CO [Hydrocortisone] please.
22
